The compounds below have reported MIC for S. aureus ATCC 6538P.
Return type: number; implicit unit µg/mL.

Prompt: Notebook entry, S. aureus ATCC 6538P assay: MIC of Cc1cccc(C)c1NC(=O)Nc1ccc(Cl)c(Cl)c1 [1be] = ?
Response: 128

Prompt: Please provide the recorded MIC for Cc1ccccc1NC(=O)Nc1ccccc1 [1fg, 1-(2-Methylphenyl)-3-phenylurea] , tested on S. aureus ATCC 6538P.
Response: 16

Further cases:
Prompt: Tell me reported MIC for O=C(Nc1ccccc1)Nc1ccc(F)c(F)c1 [1fj, 1-(3,4-Difluorophenyl)-3-phenylurea] , tested with S. aureus ATCC 6538P.
Response: 64
